target: hCRTH2 (Homo sapiens, UniProt Q9Y5Y4); construct: expressed in transfected cells; host or cells: HEK (human embryonic kidney) cells expressing hCRTH2; membrane preparation; test: Radioligand binding assay ([3H]PGD2 competition, HEK-hCRTH2 membranes); details: [3H]PGD2 binding, rated A-E (Table A)
pKi: −log10 of the molar value.
Reported pKi values follow for various molecules

[[record]]
molecule = "CC(CCCc1nc2cc(C(=O)N3CCN(c4ccccc4)CC3)ccc2nc1-c1ccc(Cl)cc1)C(=O)O (centres unmarked)"
test_value = "7.70 to 8.68"

[[record]]
molecule = "CC(CCCc1nc2cc(C(=O)NCc3ccc(F)cc3)ccc2nc1-c1ccc(F)cc1)C(=O)O (centres unmarked)"
test_value = "7.70 to 8.68"


Can you look up the measured pKi of C[C@@H](NC(=O)c1ccc2nc(-c3ccccc3)c(NCCCC(=O)O)nc2c1)c1ccc(C#N)cc1 [44G] for me?
6.70 to 7.70

Can you look up the measured pKi of `O=C(O)CCCCc1nc2cc(C(=O)Nc3ccc(F)cc3)ccc2nc1-c1ccc(F)cc1` for me?
6.70 to 7.70

Can you look up the measured pKi of C[C@H](NC(=O)c1ccc2nc(-c3ccccc3)c(CCCCC(=O)O)nc2c1)c1ccc(F)cc1 [compound 235] for me?
7.70 to 8.68

Can you look up the measured pKi of CC(CCCc1nc2cc(C(=O)N3CCN(c4ccccc4)CC3)ccc2nc1-c1ccc(F)cc1)C(=O)O (centres unmarked) for me?
7.70 to 8.68

Can you look up the measured pKi of O=C(O)CCCCc1nc2cc(C(=O)N3CCNC(c4ccccc4)C3)ccc2nc1-c1ccccc1 (centres unmarked) [15J] for me?
7.70 to 8.68

Can you look up the measured pKi of O=C(O)CCCCc1nc2cc(C(=O)N[C@@H](c3ccc(F)cc3)C(F)(F)F)ccc2nc1-c1ccc(Cl)cc1 [16Y] for me?
8.70 to 10.00

* * *

Reported Ki values follow for various compounds
Target: hCRTH2 (Homo sapiens, UniProt Q9Y5Y4)
Construct: expressed in transfected cells; host or cells: HEK (human embryonic kidney) cells expressing hCRTH2; membrane preparation
Sequence (Q9Y5Y4 1-395): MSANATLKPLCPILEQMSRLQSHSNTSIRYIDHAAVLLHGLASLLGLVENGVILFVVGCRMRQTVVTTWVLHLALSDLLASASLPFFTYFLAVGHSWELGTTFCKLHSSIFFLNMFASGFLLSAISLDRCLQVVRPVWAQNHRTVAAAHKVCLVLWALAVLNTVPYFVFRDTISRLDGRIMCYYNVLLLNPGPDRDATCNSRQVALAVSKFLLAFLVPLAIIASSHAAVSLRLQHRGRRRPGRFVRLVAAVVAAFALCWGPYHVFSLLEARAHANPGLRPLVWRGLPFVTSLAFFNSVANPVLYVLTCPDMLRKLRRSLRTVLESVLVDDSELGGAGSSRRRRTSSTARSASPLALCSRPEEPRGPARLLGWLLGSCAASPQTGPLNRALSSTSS
Assay: Radioligand binding assay ([3H]PGD2 competition, HEK-hCRTH2 membranes)
Settings: [3H]PGD2 binding, rated A-E (Table A)

In the examples that follow, each entry is paired with its recorded Ki.
[[record]]
compound = "O=C(O)CCOCc1nc2cc(C(=O)N3CCC(c4ccccc4)CC3)ccc2nc1-c1ccc(Cl)cc1"
measured_endpoint = "Ki"
test_value = "2.1 to 20 nM"

[[record]]
compound = "N#CC1(c2ccccc2)CCN(C(=O)c2ccc3nc(-c4ccccc4)c(CCCCC(=O)O)nc3c2)CC1"
measured_endpoint = "Ki"
test_value = "2.1 to 20 nM"

[[record]]
compound = "CC(NC(=O)c1ccc2nc(-c3ccccc3)c(CCCCC(=O)O)nc2c1)c1ccc(OC(F)(F)F)cc1 (stereo not shown) [15BD]"
measured_endpoint = "Ki"
test_value = "2.1 to 20 nM"

[[record]]
compound = "O=C(O)CCCCc1nc2cc(C(=O)N[C@@H]3CCc4cc(Cl)ccc43)ccc2nc1-c1ccc(F)cc1"
measured_endpoint = "Ki"
test_value = "0.1 to 2 nM"


Now take the following compound into account.
Can you look up the measured Ki of O=C(O)CCCCc1nc2cc(C(=O)NCCCN3CCCC3=O)ccc2nc1-c1ccccc1 [15BN] for me?
2.1 to 20 nM

* * *

Target: hCRTH2 (Homo sapiens, UniProt Q9Y5Y4)
Construct: expressed in transfected cells; host or cells: HEK (human embryonic kidney) cells expressing hCRTH2; membrane preparation
Sequence (Q9Y5Y4 1-395): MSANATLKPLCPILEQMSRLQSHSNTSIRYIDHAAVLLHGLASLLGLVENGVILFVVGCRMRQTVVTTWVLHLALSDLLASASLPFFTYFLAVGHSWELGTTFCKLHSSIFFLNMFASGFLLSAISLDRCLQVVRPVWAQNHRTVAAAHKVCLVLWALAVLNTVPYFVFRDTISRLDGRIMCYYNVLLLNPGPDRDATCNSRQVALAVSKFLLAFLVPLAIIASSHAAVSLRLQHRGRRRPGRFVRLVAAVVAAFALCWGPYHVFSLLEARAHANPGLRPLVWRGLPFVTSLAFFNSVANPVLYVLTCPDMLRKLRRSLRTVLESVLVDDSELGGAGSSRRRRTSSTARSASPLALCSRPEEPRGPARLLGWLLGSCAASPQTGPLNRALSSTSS
Assay: Radioligand binding assay ([3H]PGD2 competition, HEK-hCRTH2 membranes)
Conditions: [3H]PGD2 binding, rated A-E (Table A)
MEASURED_ENDPOINT: Ki

In the examples that follow, each entry is paired with its recorded Ki.
[[record]]
molecule = "O=C(O)CCCCc1nc2cc(C(=O)N[C@H](c3ccccc3)C(F)(F)F)ccc2nc1-c1ccc(F)cc1"
test_value = "0.0201 to 0.2 µM"

[[record]]
molecule = "CC(CCCc1nc2cc(C(=O)NCc3ccc(F)cc3)ccc2nc1-c1ccc(Cl)cc1)C(=O)O (centres unmarked)"
test_value = "0.0021 to 0.02 µM"

[[record]]
molecule = "O=C(O)CCCCc1nc2cc(C(=O)N3CCC(O)(c4ccc(Cl)cc4)CC3)ccc2nc1-c1ccc(F)cc1"
test_value = "0.0001 to 0.002 µM"

[[record]]
molecule = "C[C@H](NC(=O)c1ccc2nc(-c3ccc(Cl)cc3)c(CCCCC(=O)O)nc2c1)c1ccc(Cl)cc1 [16AE]"
test_value = "0.0001 to 0.002 µM"

[[record]]
molecule = "O=C(O)CCCCc1nc2cc(C(=O)N3CCC3)ccc2nc1-c1ccc(F)cc1"
test_value = "0.0021 to 0.02 µM"

[[record]]
molecule = "O=C(O)CCCCc1nc2cc(NC(=O)Cc3ccc(C(F)(F)F)cc3)ccc2nc1-c1ccccc1 [11F]"
test_value = "0.201 to 0.7 µM"

[[record]]
molecule = "O=C(O)CCCCc1nc2cc(C(=O)Nc3ccc(F)cc3)ccc2nc1-c1cccc(F)c1"
test_value = "0.0201 to 0.2 µM"


Now take the following molecule into account.
Can you look up the measured Ki of O=C(O)CCCCc1nc2cc(C(=O)N[C@@H]3CCCc4cc(F)ccc43)ccc2nc1-c1ccccc1 [compound 254] for me?
0.0001 to 0.002 µM

* * *

Biological target: hCRTH2 (Homo sapiens)
Construct: expressed in transfected cells; host or cells: HEK (human embryonic kidney) cells expressing hCRTH2; membrane preparation
Sequence (Q9Y5Y4 1-395): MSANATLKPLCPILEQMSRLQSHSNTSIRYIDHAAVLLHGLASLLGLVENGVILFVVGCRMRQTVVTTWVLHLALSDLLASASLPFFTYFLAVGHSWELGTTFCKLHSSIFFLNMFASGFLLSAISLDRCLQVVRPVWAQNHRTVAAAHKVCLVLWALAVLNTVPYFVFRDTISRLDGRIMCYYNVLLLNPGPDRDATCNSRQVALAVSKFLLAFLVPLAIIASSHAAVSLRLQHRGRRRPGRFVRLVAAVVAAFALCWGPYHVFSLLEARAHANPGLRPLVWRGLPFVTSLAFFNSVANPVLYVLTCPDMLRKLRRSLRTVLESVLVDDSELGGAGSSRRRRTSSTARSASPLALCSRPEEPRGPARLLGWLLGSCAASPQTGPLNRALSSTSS
Assay: Radioligand binding assay ([3H]PGD2 competition, HEK-hCRTH2 membranes)
Settings: [3H]PGD2 competition, Table B
Reported Ki values follow for various compounds

[[record]]
compound = "O=C(N[C@@H](c1ccccc1)C(F)(F)F)c1ccc2nc(-c3ccc(Cl)cc3)c(CC3CCC(C(=O)O)C3)nc2c1 (stereo partly shown) [compound 405]"
test_value = "2.1 to 20 nM"


Can you look up the measured Ki of O=C(O)CCCCc1nc2cc(C(=O)N3CCCCC3c3nccs3)ccc2nc1-c1ccc(Cl)cc1 (stereo not shown) [compound 654] for me?
20.1 to 200 nM

Can you look up the measured Ki of CN(Cc1ccc(F)cc1)C(=O)c1ccc2nc(-c3ccc(Cl)cc3)c(CCc3cc(F)cc(CC(=O)O)c3)nc2c1 [compound 447] for me?
0.1 to 2 nM

Can you look up the measured Ki of CC(c1ccon1)N(C)C(=O)c1ccc2nc(-c3ccc(Cl)cc3)c(CCCCC(=O)O)nc2c1 (stereo not shown) [compound 657] for me?
20.1 to 200 nM

Can you look up the measured Ki of C[C@H](CCc1nc2cc(C(=O)N3CCN(c4ccccc4)CC3)ccc2nc1-c1ccccc1)CC(=O)O [compound 280] for me?
701 to 2300 nM

Can you look up the measured Ki of C[C@@H](NC(=O)c1ccc2nc(-c3ccc(Cl)cc3)c(CCC(=O)O)nc2c1)c1ccc(F)cc1 [compound 418] for me?
20.1 to 200 nM

Can you look up the measured Ki of C[C@@H](CCCc1nc2cc(C(=O)N3CCN(c4ccccc4)CC3)ccc2nc1-c1ccc(F)cc1)C(=O)O [compound 524] for me?
2.1 to 20 nM

Provenance of the data: patent US9469615B2
